- test: Mouse PK evaluation, plasma, IV
- conditionSet: CD-1, mouse, in vivo, 3 mg/kg, Plasma concentration, Mouse 1, 3 mg/kg IV, CD-1 mice, 0.083 h
metricName: concentration at 0.083 h (ng/mL)
Give the quantity in ng/mL, number only.

Answer with reported concentration at 0.083 h of CN(C)CCCn1c(N)nc2ccc3c(c21)CC(CN(C)C)O3 (single isomer, unassigned) [Compound E1]
352

----------
- test: Neutral Red (Toxicity) of the antiviral screening
- conditionSet: human, Huh7 cells, CC50, Control drug; Assay No. 1; Neutral Red (Cytopathic effect/Toxicity) line
metricName: CC50

Retrieve CC50 measured for O=c1cnn([C@@H]2O[C@H](CO)[C@@H](O)[C@H]2O)c(=O)[nH]1 [Compound 6-azauridine, 6-azauridine, reference compound] and print it.
> 100 µg/mL

----------
- test: Mouse PK evaluation, plasma, IV
- conditionSet: CD-1, mouse, plasma, iv, 3 mg/kg, T1/2, Mouse 1, 3 mg/kg IV, CD-1 mice
metricName: half-life (h)
The reply should be a number in h, with the unit left off.

Give me measured half-life, please, for this compound: CN(C)CCCn1c(N)nc2ccc3c(c21)CC(CO)O3 (stereo not shown)
2.17

----------
- test: Mouse PK evaluation, plasma, IV
- conditionSet: CD-1, mouse, in vivo, iv, 3 mg/kg, AUCInf, Mouse 1, 3 mg/kg IV, CD-1 mice
metricName: AUC(0-inf) (ng·h/mL)
Provide the reading as a plain figure in ng·h/mL.

Return AUC(0-inf) (reported value) for this compound: CN(C)CCCn1c(N)nc2ccc3c(c21)CC(CN(C)C)O3 (single isomer, unassigned) [Compound E2]
526

----------
- test: Mouse PK evaluation, plasma, IV
- conditionSet: CD-1, mouse, plasma, intravenous, 3 mg/kg, Plasma concentration, Mouse 1, 3 mg/kg IV, CD-1 mice, 4 h
metricName: concentration at 4 h (ng/mL)
Field: numeric (ng/mL). Do not append units.

Could you please provide reported concentration at 4 h for CN(C)CCCn1c(N)nc2ccc3c(c21)CC(CO)O3 (stereo not shown) [DD041] ? Thanks!
31.6

----------
- test: Mouse PK evaluation, plasma, IV
- conditionSet: CD-1, mouse, plasma, intravenous, 3 mg/kg, Plasma concentration, Mean, 3 mg/kg IV, CD-1 mice, 8 h
metricName: concentration at 8 h (ng/mL)
Lab book: enter the figure in ng/mL, no units written.

Specify measured concentration at 8 h for CN(C)CCCn1c(N)nc2ccc3c(c21)CC(CO)O3 (stereo not shown) .
8.4

----------
- test: Neutral Red (Toxicity) of the antiviral screening
- conditionSet: human, CC50, Assay No. 1; Neutral Red (Cytopathic effect/Toxicity) line
metricName: CC50 (µM)
Field format: number, assumed µM, no unit text.

Input CN(C)CCCn1c(N)nc2ccc3c(c21)CC(CN(C)C)O3 (racemic) , output reported CC50.
6.9

----------
- test: Neutral Red (Toxicity) of the antiviral screening
- conditionSet: human, Huh7 cells, CC50, Control drug; Assay No. 1; Neutral Red (Toxicity), line of the virus yield reduction assay
metricName: CC50

Provide only the value of recorded CC50 for O=c1cnn([C@@H]2O[C@H](CO)[C@@H](O)[C@H]2O)c(=O)[nH]1 [Compound 6-azauridine, 6-azauridine, reference compound]
> 100 µg/mL

----------
- Tested on: MB002 cells
- test: MTT assay, cell proliferation
- Format: cell-based
- conditionSet: MB002, read-out: Dose E2
metricName: pIC50
Worth noting: pIC50 values are minus log10 of concentrations stated in mol/L.

Please report the measured pIC50 for CN(C)CCCn1c(N)nc2ccc3c(c21)CC(CN(C)C)O3 (single isomer, unassigned) [Compound E2]
6.49

----------
- test: Neutral Red (Toxicity) of the antiviral screening
- conditionSet: human, CC50, Assay No. 2; Neutral Red (Toxicity), line of the virus yield reduction assay
metricName: CC50 (nM)
Please state the figure in nM; there is no need to write the unit.

Provide measured CC50 value, entry: CN(C)CCCn1c(N)nc2ccc3c(c21)CC(CN(C)C)O3 (racemic)
2400

----------
- test: Mouse PK evaluation, plasma, IV
- conditionSet: CD-1, mouse, plasma, intravenous, 3 mg/kg, Plasma concentration, Mouse 3, 3 mg/kg IV, CD-1 mice, 4 h
metricName: concentration at 4 h (ng/mL)
The reply should be a number in ng/mL, with the unit left off.

Supply measured concentration at 4 h of CN(C)CCCn1c(N)nc2ccc3c(c21)CC(CO)O3 (stereo not shown) in your reply.
22

----------
- test: Mouse PK evaluation, plasma, IV
- conditionSet: CD-1, mouse, plasma, intravenous, 3 mg/kg, Plasma concentration, Mouse 2, 3 mg/kg IV, CD-1 mice, 2 h
metricName: concentration at 2 h (ng/mL)
Express it in ng/mL; write the number only.

Return reported concentration at 2 h. Input molecule: CN(C)CCCn1c(N)nc2ccc3c(c21)CC(CO)O3 (stereo not shown)
66.4

----------
- test: Mouse PK evaluation, plasma, IV
- conditionSet: CD-1, mouse, plasma, intravenous, 3 mg/kg, Plasma concentration, Mouse 3, 3 mg/kg IV, CD-1 mice, 8 h
metricName: concentration at 8 h (ng/mL)
Report only the number, with the unit ng/mL understood.

Quote concentration at 8 h reported for CN(C)CCCn1c(N)nc2ccc3c(c21)CC(CO)O3 (stereo not shown) please.
9.51

----------
- test: Mouse PK evaluation, plasma, IV
- conditionSet: CD-1, mouse, plasma, iv, 3 mg/kg, MRTInf_obs, Mean, 3 mg/kg IV, CD-1 mice
metricName: MRT inf (h)
Give the quantity in h, number only.

Query MRT inf for CN(C)CCCn1c(N)nc2ccc3c(c21)CC(CO)O3 (stereo not shown) [DD041]
2.01

----------
- test: Mouse PK evaluation, plasma, IV
- conditionSet: CD-1, mouse, in vivo, iv, 3 mg/kg, AUCInf, Mean, 3 mg/kg IV, CD-1 mice
metricName: AUC(0-inf) (ng·h/mL)
Note: unit ng·h/mL is implicit; provide only the numeric part.

Give reported AUC(0-inf) value for CN(C)CCCn1c(N)nc2ccc3c(c21)CC(CN(C)C)O3 (single isomer, unassigned) [Compound E2]
485

----------
- test: Mouse PK evaluation, plasma, IV
- conditionSet: CD-1, mouse, in vivo, 3 mg/kg, Plasma concentration, Mean, 3 mg/kg IV, CD-1 mice, 0.083 h
metricName: concentration at 0.083 h (ng/mL)
The answer is to be given in ng/mL; state only the numeric part.

Item CN(C)CCCn1c(N)nc2ccc3c(c21)CC(CN(C)C)O3 (single isomer, unassigned) [Compound E1] : provide concentration at 0.083 h
387

----------
- test: Mouse PK evaluation, plasma, IV
- conditionSet: CD-1, mouse, in vivo, 3 mg/kg, Plasma concentration, Mean, 3 mg/kg IV, CD-1 mice, 8 h
metricName: concentration at 8 h (ng/mL)
Report the figure in ng/mL without appending any unit label.

Kindly indicate its recorded concentration at 8 h. Item: CN(C)CCCn1c(N)nc2ccc3c(c21)CC(CN(C)C)O3 (single isomer, unassigned) [Compound E1]
7.3

----------
- test: Mouse PK evaluation, plasma, IV
- conditionSet: CD-1, mouse, in vivo, 3 mg/kg, Plasma concentration, Mouse 3, 3 mg/kg IV, CD-1 mice, 0.083 h
metricName: concentration at 0.083 h (ng/mL)
// return numeric value only (unit: ng/mL, not printed)

Give me measured concentration at 0.083 h, please, for this compound: CN(C)CCCn1c(N)nc2ccc3c(c21)CC(CN(C)C)O3 (single isomer, unassigned) [Compound E1]
443

----------
- test: Mouse PK evaluation, plasma, IV
- conditionSet: CD-1, mouse, plasma, intravenous, 3 mg/kg, Plasma concentration, Mouse 2, 3 mg/kg IV, CD-1 mice, 0.5 h
metricName: concentration at 0.5 h (ng/mL)
State the answer as a number, implicitly in ng/mL.

// Input: CN(C)CCCn1c(N)nc2ccc3c(c21)CC(CO)O3 (stereo not shown) [DD041] . Output its concentration at 0.5 h only.
255

----------
- test: Neutral Red (Toxicity) of the antiviral screening
- conditionSet: human, Huh7 cells, CC50, Assay No. 2; Neutral Red (Cytopathic effect/Toxicity) line
metricName: CC50 (µM)
Quick note: give the figure in µM, leave out the unit.

Give a short answer stating reported CC50 for CN(C)CCCn1c(N)nc2ccc3c(c21)CC(CO)O3 (stereo not shown) [DD041] .
26

----------
- test: Mouse PK evaluation, plasma, IV
- conditionSet: CD-1, mouse, in vivo, 3 mg/kg, Plasma concentration, Mouse 2, 3 mg/kg IV, CD-1 mice, 1 h
metricName: concentration at 1 h (ng/mL)
Your answer should be a plain number; it is taken to be in ng/mL.

Please give the documented concentration at 1 h of CN(C)CCCn1c(N)nc2ccc3c(c21)CC(CN(C)C)O3 (single isomer, unassigned) [Compound E1]
51.8
